Biological target: T1, Recombinant MBP-mutCALR Type 1 fusion protein (human)
T1 construct: custom made at Cepter; also called recombinant mutCALR protein
Assay: SPR, IgG captured, 1:1 fit, Exp. 2
Readout: kon (M⁻¹ s⁻¹)
Please state the figure in M⁻¹ s⁻¹; there is no need to write the unit.

kon in this record for anti-mutCALR antibody clone 53 (antibody, human IgG1, lambda, V domains shown, human IgG1) VH: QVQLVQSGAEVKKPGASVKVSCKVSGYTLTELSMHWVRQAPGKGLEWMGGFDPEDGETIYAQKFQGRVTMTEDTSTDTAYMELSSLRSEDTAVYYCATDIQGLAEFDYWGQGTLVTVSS VL: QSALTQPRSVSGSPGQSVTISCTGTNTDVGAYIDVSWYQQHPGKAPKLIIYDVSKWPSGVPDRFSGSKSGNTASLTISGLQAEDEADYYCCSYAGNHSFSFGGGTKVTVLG : 6.36e+06

Just so you know, measured kon for anti-mutCALR antibody clone 132 (antibody, human IgG1, lambda, N297A, V domains shown, human IgG1 N297A variant of clone 15) VH: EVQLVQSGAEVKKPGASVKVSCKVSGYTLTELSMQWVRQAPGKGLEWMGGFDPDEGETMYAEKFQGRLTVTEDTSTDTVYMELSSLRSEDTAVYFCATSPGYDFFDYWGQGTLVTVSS VL: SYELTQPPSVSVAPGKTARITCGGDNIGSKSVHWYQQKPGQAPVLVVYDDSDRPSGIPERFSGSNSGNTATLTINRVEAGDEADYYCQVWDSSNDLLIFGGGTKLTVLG came out at 1.13e+06

Lab note: measured kon of anti-mutCALR antibody clone 69 (antibody, human IgG1, lambda, N297A, V domains shown, human IgG1 N297A variant of clone 6) VH: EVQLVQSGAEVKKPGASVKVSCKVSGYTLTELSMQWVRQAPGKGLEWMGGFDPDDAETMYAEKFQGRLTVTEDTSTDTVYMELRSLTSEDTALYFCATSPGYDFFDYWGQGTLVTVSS VL: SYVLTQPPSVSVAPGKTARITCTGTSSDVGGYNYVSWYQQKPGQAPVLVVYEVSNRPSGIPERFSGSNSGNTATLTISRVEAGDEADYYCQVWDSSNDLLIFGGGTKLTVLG was 9.94e+06

Lookup result for anti-mutCALR antibody clone 174 (antibody, human IgG1, lambda, N297A, V domains shown) VH: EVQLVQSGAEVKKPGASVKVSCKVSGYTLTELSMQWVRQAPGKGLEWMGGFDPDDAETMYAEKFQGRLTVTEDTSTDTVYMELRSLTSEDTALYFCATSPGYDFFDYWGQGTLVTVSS VL: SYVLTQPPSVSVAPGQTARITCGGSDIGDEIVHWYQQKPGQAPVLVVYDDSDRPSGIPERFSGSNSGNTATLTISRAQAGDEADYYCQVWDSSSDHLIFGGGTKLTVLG ; measured kon: 7.8e+06

Measured kon of anti-mutCALR antibody clone 183 (antibody, human IgG1, lambda, N297A, V domains shown) VH: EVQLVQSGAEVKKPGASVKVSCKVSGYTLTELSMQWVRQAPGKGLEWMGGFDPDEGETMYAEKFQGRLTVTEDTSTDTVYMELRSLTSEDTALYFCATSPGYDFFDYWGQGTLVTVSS VL: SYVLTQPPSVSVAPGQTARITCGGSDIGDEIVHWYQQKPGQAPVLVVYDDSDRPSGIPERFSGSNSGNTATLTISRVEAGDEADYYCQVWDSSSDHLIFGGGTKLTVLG : 1.23e+06

Values were extracted from patent US20230272055A1.
